Molecular target: T1, biotinylated goat anti-human kappa light chain
T1 construct: positive control of the ELISA
Experiment: ELISA, positive control; further: test concentration or dose not given here
recorded-metric: optical density (OD)
Just the number in OD, nothing appended.

Worked set:
binder	units-label	obs-value
375_C04 (antibody, V domains shown, Group III) VH: EVQLLESGGGLVQPGGSLRLSCAASGFTFSDYSMNWVRQAPGKGLEWVAGINYNGGYTSYADSVKGRFTISRDNSKNTLYLQMNSLRAEDTAVYYCARGANWHDTALDYWGQGTLVTVSS VL: DIQMTQSPSSLSASVGDRVTITCRASQSILTYLNWYQQKPGKAPKLVIYAATSRASGVPSRFSGSGSGTDFTLTISSLQPEDFATYYCQQSYESPLTFGGGTKVEIK	OD	3.21
371_B04 (antibody, V domains shown, Group III) VH: EVQLLESGGGLVQPGGSLRLSCAASGFTFSSYSMNWVRQAPGKGLEWVSGINYNGGYKSYADSVKGRFTISRDNSKNTLYLQMNSLRAEDTAVYYCARGANWHDTALDYWGQGTLVTVSS VL: DIQMTQSPSSLSASVGDRVTITCRASQSILSYLNWYQQKPGKAPKLVIYAVTSRHSGVPSRFSGSGSGTDFTLTISSLQPEDFATYYCQQSYDSPLTFGGGTKVEIK	OD	2.27

# ---- query binder ----
-- ask Given the binder 373_E10 (antibody, V domains shown, Group III) VH: EVQLLESGGGLVQPGGSLRLSCAASGFTFSDYSMNWVRQAPGKGLEWVSGINYNGGYTSYADSVKGRFTISRDNSKNTLYLQMNSLRAEDTAVYYCARGANWHDTALDYWGQGTLVTVSS VL: DIQMTQSPSSLSASVGDRVTITCRASQSILTYVNWYQQKPGKAPKLVIYAATSRHSGVPSRFSGSGSGTDFTLTISSLQPEDFATYYCQQSYETPLTFGGGTKVEIK , what is its reported optical density?
-- reply 3.2
